From: patent US20240270821A1

- target.under.test: hGLP-1R (Homo sapiens)
- Sequence (P43220 24-463): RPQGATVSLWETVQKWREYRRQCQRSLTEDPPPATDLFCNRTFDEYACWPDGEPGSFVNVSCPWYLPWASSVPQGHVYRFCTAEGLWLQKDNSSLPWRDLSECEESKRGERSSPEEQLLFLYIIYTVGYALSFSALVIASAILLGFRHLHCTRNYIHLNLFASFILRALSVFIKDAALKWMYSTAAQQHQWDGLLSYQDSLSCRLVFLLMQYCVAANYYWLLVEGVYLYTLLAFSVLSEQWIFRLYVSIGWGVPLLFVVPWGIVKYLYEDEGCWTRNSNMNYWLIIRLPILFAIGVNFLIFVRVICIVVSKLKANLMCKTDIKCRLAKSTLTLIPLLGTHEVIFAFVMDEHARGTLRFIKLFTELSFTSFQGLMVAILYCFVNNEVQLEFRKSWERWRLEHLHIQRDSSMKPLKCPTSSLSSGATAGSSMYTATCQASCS
- experimental.details: Functional cAMP activation in the presence of 0.1% casein (no HSA);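 also: intracellular cAMP rise after 30 min at 37 °C read by HTRF, normalized between buffer only (0%) and maximal control ligand (100%), four-parameter variable-slope fit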
- Type: cell-based
- test.settings: in the presence of 0.1% casein (no HSA); geometric mean; read-out: Relative cAMP EC50, hGLP-1R
Starred links: 1 amine or outer side, 2 acyl side, 3 side chain; linkers in the order of their positions; H or OH if unused. Non-standard residues stand in square brackets, D forms with d. Groups on a side chain read outwards from the residue. No end group written: not given here. *: point of attachment. C18 diacid = O=C(O)CCCCCCCCCCCCCCCCC(=O)*; γGlu = O=C(O)[C@H](CCC(=O)[*:2])N[*:1]; αMe4Pal = C[C@](N)(Cc1ccncc1)C(=O)O; 4Pal = N[C@@H](Cc1ccncc1)C(=O)O; αMeL = CC(C)C[C@](C)(N)C(=O)O; Orn = NCCC[C@H](N)C(=O)O; Dab = NCC[C@H](N)C(=O)O; AEEA = NCCOCCOCC(=O)O; Aib = CC(C)(N)C(=O)O
metric.name: pEC50
Note: pEC50 values are expressed as the negative base-10 logarithm of concentration in M.

>  <substance>
H-Y[Aib]QGTFTSDFS[Orn][αMeL]LDKK([AEEA-γGlu-γGlu-C18 diacid])AQ[Aib]AFIEYLLE[Aib]GPSSGAPPPSG[4Pal]-NH2 [Example 279]

>  <target.under.test>
hGLP-1R (Homo sapiens)

>  <metric.name>
pEC50

>  <observed.result>
8.24

$$$$
>  <substance>
H-Y[Aib]QGTFTSDFS[Dab][αMeL]LDKK([AEEA-γGlu-C18 diacid])AQ[Aib]AFIEYLIE[Aib]GPSSGAPPPSGS-NH2 [Example 799]

>  <target.under.test>
hGLP-1R (Homo sapiens)

>  <metric.name>
pEC50

>  <observed.result>
9.34

$$$$

Notebook: Y[Aib]QGTFTSD[4Pal]S[Orn][αMeL]LDKK([γGlu-γGlu-C18 diacid])AQ[αMe4Pal]AFIE[αMe4Pal]LIE[Aib]GPSSGEPPPSGS-NH2 [Example 989] , pEC50 read as 8.41
